system: 616215-338-R-J1-PDC complex spheroid viability; experiment: Anticancer human tumor 616215-338-R-J1-PDC patient-derived colon adenocarcinoma cell line growth inhibition [POLQ]; conditions: curve of first compound; second compound 0.1 µM
READOUT: IC50

Worked examples, 4 compounds total:
INSERT INTO results (compound, assay_result) VALUES
  ('Cn1ncnc1[C@H]1c2n[nH]c(=O)c3cc(F)cc(c23)N[C@@H]1c1ccc(F)cc1 + Cc1cccc(N(C)C(=O)C2C(O)CCN2c2nc(C)cc(C(F)(F)F)c2C#N)c1', '> 0.1 µM'),
  ('C#Cc1c(F)ccc2cc(O)cc(-c3ncc4c(N5CC6CCC(C5)N6)nc(OCC56CCCN5CC(F)C6)nc4c3F)c12 (stereo not given) + Nc1ccc(C#CCN(C(=O)Cc2ncc(C(F)(F)F)cc2C(F)(F)F)c2ccc(F)cc2)nn1', '4.11 µM'),
  ('COc1ccc([C@@H](O)c2cc(-c3ncnc4cc(N5CCOCC5)ccc34)c(F)cc2Cl)nn1 + COC1C(OC(N)=O)C(O)C(Oc2ccc3c(O)c(NC(=O)c4ccc(O)c(CC=C(C)C)c4)c(=O)oc3c2C)OC1(C)C', '> 10 µM'),
  ('O=C(c1cc(Cc2n[nH]c(=O)c3ccccc23)ccc1F)N1CCN(C(=O)C2CC2)CC1 + COC1C(OC(N)=O)C(O)C(Oc2ccc3c(O)c(NC(=O)c4ccc(O)c(CC=C(C)C)c4)c(=O)oc3c2C)OC1(C)C', '> 10 µM');

INPUT: Suppose we examine the compound C=CC(=O)N1CCN(c2nc(=O)n(-c3c(C)ccnc3C(C)C)c3nc(-c4c(O)cccc4F)c(F)cc23)C(C)C1 (stereo not given) + COC1C(OC(N)=O)C(O)C(Oc2ccc3c(O)c(NC(=O)c4ccc(O)c(CC=C(C)C)c4)c(=O)oc3c2C)OC1(C)C ; what IC50 value has been reported?
OUTPUT: > 10 µM

* * *

tested on: 616215-338-R-J1-PDC complex spheroid viability; assay: Anticancer human tumor 616215-338-R-J1-PDC cell line growth inhibition [POLQ]; details: second compound 1 µM; first compound 3.16 µM; stronger effect = lower value;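 also: spheroids exposed to compounds for one week before readout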;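 as to viability, T/C: percent viability relative to DMSO vehicle wells taken as 100%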
READOUT: viability, T/C (%)
Answers are plain numbers, in %.

For each listed entry, give its viability, T/C.
1. O=c1[nH]cc(F)c(=O)[nH]1 + Cc1cccc(N(C)C(=O)C2C(O)CCN2c2nc(C)cc(C(F)(F)F)c2C#N)c1
2. CC1COCCN1c1cc(C2(O)CC3CCC(C2)O3)c2cnn(-c3ccn[nH]3)c2n1 (stereo not drawn) + COC1C(OC(N)=O)C(O)C(Oc2ccc3c(O)c(NC(=O)c4ccc(O)c(CC=C(C)C)c4)c(=O)oc3c2C)OC1(C)C

OUTPUT:
1: 56.2; 2: 47.8

INPUT: Kindly state the measured viability, T/C obtained for O=c1[nH]cc(F)c(=O)[nH]1 + COC1C(OC(N)=O)C(O)C(Oc2ccc3c(O)c(NC(=O)c4ccc(O)c(CC=C(C)C)c4)c(=O)oc3c2C)OC1(C)C with 616215-338-R-J1-PDC complex spheroid viability.
OUTPUT: 52.1

* * *

So I've got a bunch of compounds here, and I need their viability, T/C values.
test system: 616215-338-R-J1-PDC complex spheroid viability; test: Anticancer human tumor 616215-338-R-J1-PDC cell line growth inhibition [POLQ]; conditions: second compound 1 µM; first compound 0.0316 µM; stronger effect = lower value;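 also: spheroids exposed to compounds for one week before readout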;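 as to viability, T/C: percent viability relative to DMSO vehicle wells taken as 100%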
One number for each entry, in %.

INSERT INTO results (compound, target_or_system, readout, output_unit, assay_result) VALUES
  ('COc1cc2cc(C(=O)CCC(=O)O)sc2cc1OC + COC1C(OC(N)=O)C(O)C(Oc2ccc3c(O)c(NC(=O)c4ccc(O)c(CC=C(C)C)c4)c(=O)oc3c2C)OC1(C)C', '616215-338-R-J1-PDC complex spheroid viability', 'viability, T/C', '%', 102);

For each listed entry, give its viability, T/C.
1. O=C(c1cc(Cc2n[nH]c(=O)c3ccccc23)ccc1F)N1CCN(C(=O)C2CC2)CC1 + Cc1cccc(N(C)C(=O)C2C(O)CCN2c2nc(C)cc(C(F)(F)F)c2C#N)c1
2. CC(C)n1c(=O)n(C)c2cnc3cc(F)c(-c4ccc(OCCCN5CCCCC5)nc4)cc3c21 + Cc1cccc(N(C)C(=O)C2C(O)CCN2c2nc(C)cc(C(F)(F)F)c2C#N)c1
3. COc1ccc([C@@H](O)c2cc(-c3ncnc4cc(N5CCOCC5)ccc34)c(F)cc2Cl)nn1 + Cc1cccc(N(C)C(=O)C2C(O)CCN2c2nc(C)cc(C(F)(F)F)c2C#N)c1
4. CC[C@@]1(O)C(=O)OCc2c1cc1n(c2=O)Cc2cc3c(CN(C)C)c(O)ccc3nc2-1 + Cc1cccc(N(C)C(=O)C2C(O)CCN2c2nc(C)cc(C(F)(F)F)c2C#N)c1
5. Nc1ccn(C2OC(CO)C(O)C2(F)F)c(=O)n1 (stereo unspecified) + Cc1cccc(N(C)C(=O)C2C(O)CCN2c2nc(C)cc(C(F)(F)F)c2C#N)c1
6. COc1cccc2c1C(=O)c1c(O)c3c(c(O)c1C2=O)CC(O)(C(=O)CO)CC3OC1CC(N)C(O)C(C)O1 (stereo unspecified) + COC1C(OC(N)=O)C(O)C(Oc2ccc3c(O)c(NC(=O)c4ccc(O)c(CC=C(C)C)c4)c(=O)oc3c2C)OC1(C)C

OUTPUT:
[111, 101, 114, 103, 61.9, 118]

For each listed entry, give its viability, T/C.
1. COc1ccc([C@@H](O)c2cc(-c3ncnc4cc(N5CCOCC5)ccc34)c(F)cc2Cl)nn1 + Nc1ccc(C#CCN(C(=O)Cc2ncc(C(F)(F)F)cc2C(F)(F)F)c2ccc(F)cc2)nn1
2. CCc1cc2c(N3CCc4c(cc(Cn5ccnc5)cc4-c4cn(C)nc4C(F)(F)F)C3=O)ccnc2c(OC)n1 + COC1C(OC(N)=O)C(O)C(Oc2ccc3c(O)c(NC(=O)c4ccc(O)c(CC=C(C)C)c4)c(=O)oc3c2C)OC1(C)C
3. O=C(Nc1ccc(O)c(NS(=O)(=O)c2ccc(F)cc2)c1)c1ccc(-c2ccccc2)cc1 + Nc1ccc(C#CCN(C(=O)Cc2ncc(C(F)(F)F)cc2C(F)(F)F)c2ccc(F)cc2)nn1
4. COc1cc2cc(C(=O)CCC(=O)O)sc2cc1OC + Cc1cccc(N(C)C(=O)C2C(O)CCN2c2nc(C)cc(C(F)(F)F)c2C#N)c1

OUTPUT:
107
105
105
105

* * *

system: 616215-338-R-J1-PDC complex spheroid viability; experiment: Anticancer human tumor 616215-338-R-J1-PDC cell line growth inhibition [POLQ]; conditions: second compound 3.16 µM; first compound 0.00316 µM; stronger effect = lower value;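 also: spheroids exposed to compounds for one week before readout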;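 as to viability, T/C: percent viability relative to DMSO vehicle wells taken as 100%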
READOUT: viability, T/C (%)
Answers are plain numbers, in %.

Worked examples, 2 compounds total:
INSERT INTO results (compound, assay_result) VALUES
  ('Cn1ncnc1[C@H]1c2n[nH]c(=O)c3cc(F)cc(c23)N[C@@H]1c1ccc(F)cc1 + Nc1ccc(C#CCN(C(=O)Cc2ncc(C(F)(F)F)cc2C(F)(F)F)c2ccc(F)cc2)nn1', 103),
  ('CC[C@@]1(O)C(=O)OCc2c1cc1n(c2=O)Cc2cc3c(CN(C)C)c(O)ccc3nc2-1 + Nc1ccc(C#CCN(C(=O)Cc2ncc(C(F)(F)F)cc2C(F)(F)F)c2ccc(F)cc2)nn1', 98.2);

For each listed entry, give its viability, T/C.
1. CCc1c2c(nc3ccc(O)cc13)-c1cc3c(c(=O)n1C2)COC(=O)[C@]3(O)CC + COC1C(OC(N)=O)C(O)C(Oc2ccc3c(O)c(NC(=O)c4ccc(O)c(CC=C(C)C)c4)c(=O)oc3c2C)OC1(C)C
2. CC[C@@]1(O)C(=O)OCc2c1cc1n(c2=O)Cc2cc3c(CN(C)C)c(O)ccc3nc2-1 + COC1C(OC(N)=O)C(O)C(Oc2ccc3c(O)c(NC(=O)c4ccc(O)c(CC=C(C)C)c4)c(=O)oc3c2C)OC1(C)C
3. C=CCn1c(=O)c2cnc(Nc3ccc(N4CCN(C)CC4)cc3)nc2n1-c1cccc(C(C)(C)O)n1 + COC1C(OC(N)=O)C(O)C(Oc2ccc3c(O)c(NC(=O)c4ccc(O)c(CC=C(C)C)c4)c(=O)oc3c2C)OC1(C)C
4. COc1cccc(OCCCN)c1-c1cc(Nc2cnc(C#N)cn2)n[nH]1 + COC1C(OC(N)=O)C(O)C(Oc2ccc3c(O)c(NC(=O)c4ccc(O)c(CC=C(C)C)c4)c(=O)oc3c2C)OC1(C)C
5. COc1cccc(OCCCN)c1-c1cc(Nc2cnc(C#N)cn2)n[nH]1 + Nc1ccc(C#CCN(C(=O)Cc2ncc(C(F)(F)F)cc2C(F)(F)F)c2ccc(F)cc2)nn1
6. CCc1c2c(nc3ccc(O)cc13)-c1cc3c(c(=O)n1C2)COC(=O)[C@]3(O)CC + Nc1ccc(C#CCN(C(=O)Cc2ncc(C(F)(F)F)cc2C(F)(F)F)c2ccc(F)cc2)nn1
7. C=CCn1c(=O)c2cnc(Nc3ccc(N4CCN(C)CC4)cc3)nc2n1-c1cccc(C(C)(C)O)n1 + Nc1ccc(C#CCN(C(=O)Cc2ncc(C(F)(F)F)cc2C(F)(F)F)c2ccc(F)cc2)nn1

OUTPUT:
[106, 99.4, 93.8, 98.8, 103, 77.6, 90]

INPUT: Suppose we examine the compound C=CCn1c(=O)c2cnc(Nc3ccc(N4CCN(C)CC4)cc3)nc2n1-c1cccc(C(C)(C)O)n1 + Cc1cccc(N(C)C(=O)C2C(O)CCN2c2nc(C)cc(C(F)(F)F)c2C#N)c1 ; what viability, T/C value has been reported?
OUTPUT: 98.1
